PROCEDURE_SUMMARY: Toxicity against Zea mays Gao you 1 (maize) assessed as growth inhibition at 450 ai g/ha post-emergent application measured after 20 days by green house crop selectivity test
Type: organism-based
CONDITION_DESCRIPTION: Gao you 1, zea mays, in vivo, read-out: GI
QUANTITY_KIND: inhibition at 480 h
Respond with the figure and its unit, in that order.

Value lookup for inhibition at 480 h; key = COP(=O)(OC)C(C)OC(=O)COc1ccc(Cl)cc1Cl (stereo unspecified) 0%

* * *

System: Medicago sativa
PROCEDURE_SUMMARY: Pre-emergence herbicidal activity against Medicago sativa (alfalfa) assessed as growth inhibition at 1500 ai g/ha after 20 days by green house test
Format: functional
Reported growth inhibition (GI) values follow for various molecules
State just the number; it will be interpreted in %.

Use these answered entries as a reference point.
Can you look up the measured growth inhibition (GI) of COP(=O)(OC)C(C)OC(=O)COc1ccc(F)cc1F (stereo not given) for me? 50

# growth inhibition (GI) lookup, item COP(=O)(OC)C(OC(=O)COc1ccc(F)c(Cl)c1)c1cccc([N+](=O)[O-])c1 (stereo not given) 50

Would you kindly share the measured growth inhibition (GI) for COP(=O)(OC)C(C)OC(=O)COc1ccc(F)cc1 (stereo not given) ? 75

# query: growth inhibition (GI) of entry COP(=O)(OC)C(OC(=O)COc1ccc(C)cc1)c1ccccc1 (stereo not given) 75

Consider the record given below.
For the molecule COP(=O)(OC)C(C)OC(=O)COc1ccc(Cl)c(C)c1 (stereo not given) , what growth inhibition (GI) is on record? 75
